assay.procedure: yeast display, Sf9 membrane polyspecificity reagent, FACS + sequencing; frameworks hold sequencing errors
value.type: polyreactivity (PSR sort gate)

Some solved cases for reference:
QVQLVESGGCLVQAGGSLRLSCAASGFTFHNNVMGWYRQAPGKDRELVATISKSGGSTYYADSEKGRFTISRDNAKNTVYLQMNSLKPEDTAVYYCDRRYRYYGRYGYWGQGTQVTVSS	high polyreactivity
QVQLVESGGGLVQAGGSLRLSCAASGSTFEYYAMGWYRQAPGKERELVAAISWSGGSTYYADSVKGRFTISRDNAKNTVYLQMNSLKPEDTAVYDCATDTGTSFYGINYGYDYWGQGTQVTVSS	low polyreactivity
QVQLVESGGGSDQAGGSLRLSCAASGSTFQYNVMGWYRQAPRKERELVAAIRQSGSTTYYADSVKGRFTISRDNAKNTVYLQMNSLKPEDTAVYYCAKRYHNWANSRMDYWGQGTQVTVSS	low polyreactivity
QVQLVESGGGLVQAGGSLRLSCAASGNIFGIYTMGWYRQAPGKEREFFAVISLSGTSTYYADSVKGRFTISRDNAKNTVYLQMNSLKPEDTAVYYCNARTPHNKGRRRAYDYWGLGTQVTVSS	high polyreactivity
QVQLVESGGGLVQSGGSLRLSCAASGRIFVYYAMGWYIQAPGKEMELVAAIDGSDGTTYYADSVKGRFTISRDNAKNTVYLQMNSLKPEDTSVYYCAKDNSLPDYDYWGQGTQVTVSS	low polyreactivity

Query string: Give recorded polyreactivity (PSR sort gate). `QVQLVESGGGLVQAGGSLRLSCAASGSSFSPYAMGWYRQAPGKERELVAAINSGSSTNYADSVKGRFTISRDNAKNTVYLQMNSLQPEDTAVYYCAADGQLPPRGILASWEFDYWGQGTQVTVSS`
Result string: low polyreactivity

Query string: Give recorded polyreactivity (PSR sort gate). `QVQLVESGGGLVQAGGSLRLSCAASGRTFSRNAMGWYRHAPGKEWELVAAISRTGGSTYYADSVKGRFTISRDNAKKTVYLQMNSLKPEDTAVYYCAAGTWGWYAYGYWGLGTQVTVSS`
Result string: high polyreactivity

* * *

assay.procedure: yeast display, Sf9 membrane polyspecificity reagent, FACS + sequencing; frameworks hold sequencing errors
value.type: polyreactivity (PSR sort gate)

QVQLVESGGGLVHAGGSHRLSCAASGRTFPGYPMGWYIPAPGTERELVAGISYRGGSTYFADSVKGRFTISRDNAKNTVYLQMNSLKPEDTAVYFCARDYSRHKGDYWGQGTQGTVSS	low polyreactivity
QVQLVESGGRIVQAGGSLRLSCDASGSTIFGNGMGWYRQAPGKERELVAAISGGGSTHYADSVKGRFTISRDNAKNTVYLQMNSVKPEDTAVYYCSPSRDTDGRGPIQRDFWGQGTQVTVSS	low polyreactivity
QVQLLESGGGLVQAGGSLRLSCAASGRIFYVNAMGWYRQSPGKERELVAGIDDGVTTYYADSVKGRFTISRDNAKNTVYLLMNRLKPEDTAVYYCAAETSTNPEAYEYWGQGTQVTVSS	low polyreactivity

* * *

assay.procedure: yeast display, Sf9 membrane polyspecificity reagent, FACS + sequencing; frameworks hold sequencing errors
value.type: polyreactivity (PSR sort gate)

Some solved cases for reference:
QVQLVESGGGLVQAGGSLRLSCAASGSTFNRNAMGWYRQAPGKERELVASISSGDNTKYADSVKGRFTISRDNAKNTVYLKMNSLKPEDTAVYYCNTVNKSLYAGLRKRWGGYYYWGQGTQVTVSS	high polyreactivity
QVQLVESGGGLVQAGGSLRLSCAASGSTFLLNAMGWYRQAPGKERELVAAITWNGGSTYYADSVKGRFTISRDNAKNTVYLQMNSLKPEDTAVYYCAADWSWQWRYGYDYWGQGTQVTVSS	low polyreactivity
QVQLVESGGRLVQAGVSLRISSAASGYISRVYAMGWYRHAPGKERELVAAITRSTTYYADSVKGRFTISRDNAKNTVYLQMNSLKPEDTAVDYCNADWASPGQVRMYYWGQGTQVTVSS	high polyreactivity
QVQLVESGGGLVQAGGSLRLSCAASGRILVVNAMGWYRQAPGKERELVASISQSGGITYADSVKGRFTISRDNAKNTVYLQMNSLKTEDTAVYYCAAKSTWEYDYWGQGTQVTVSS	low polyreactivity
QVQHVESGGGLVQAGGSLRLSCAASGSTFAYNDMGRYRQAPGKERELVADIRSGGNTNYADSVKGRFTISRDNAKNTVYLQMNSLKPEDTAVYYCATDGYRIDVYHPDYRYDYWGQGTQVTVSS	low polyreactivity
QVQLVESGGGLVQAGGSLRLSCAASGRIFLPNAMGWYRQAPGKERELVATITRGGGSTYYADSVKGRFTISRDNAKNTVYLQMNSLKPEDTAVYYCAKGYLLYQGHLPYWHRGGYWGQGTQVTVSS	high polyreactivity

Query string: Give recorded polyreactivity (PSR sort gate). `QVQLVESGGGLVQAGGSLRLICAASGSIFGLYVMGWYRQAPGKERELVATITSGGSTYYADSVKGRFTISRDNAKNTVYLQMNSLKPEDTAVYYCNTRWTPSREYDYWGQGTQVTVSS`
Result string: low polyreactivity

Query string: Give recorded polyreactivity (PSR sort gate). `QVQLVESGGGLVQAGGSLRLSCAASGFIFYRNTMGWYRQAPGKERELVAANSVSGGSTNYADSVKGRFTISRDNAKNTVYLQMNSLKPEDSAVYYCAARVRDSLVYGGWDDYWGQGTQVTVSS`
Result string: high polyreactivity

Query string: Give recorded polyreactivity (PSR sort gate). `QVQLVESGGGLVQAGGSLRLSCAASGITFWGYAMGWYRQAPGKEREFVARINWSGGRTYYAESVKGRFTISRDNAKNTVYLQMNSLKPEDTAVYYCNVVLRSVVSGDYWVQGTQVTVSS`
Result string: high polyreactivity

Query string: Give recorded polyreactivity (PSR sort gate). `QVQLVESGGGLVQAGGSLRLSCAASGRIFLTKAMGWYRQAPGKERELVADISRGGSTYADSVKGRFTISRDNAKNTVYLQMNSLKPEDTAVYYCAADEYSPGDSRTRYDYWGQGTQVTVSS`
Result string: low polyreactivity
